molecular target: HIV-1 Env of isolate MGRM-A-008 (pseudovirus) (HIV-1); experiment: cell-based or functional assay
assay.readout: IC50 (µg/mL), pseudovirus neutralization

Below are worked cases with known answers.
>  <binder>
PGT-126 (5141_B17) (antibody, V domains shown) VH: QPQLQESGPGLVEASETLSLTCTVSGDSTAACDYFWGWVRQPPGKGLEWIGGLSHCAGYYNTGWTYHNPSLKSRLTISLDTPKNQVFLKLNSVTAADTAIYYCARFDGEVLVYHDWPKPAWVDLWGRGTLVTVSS VL: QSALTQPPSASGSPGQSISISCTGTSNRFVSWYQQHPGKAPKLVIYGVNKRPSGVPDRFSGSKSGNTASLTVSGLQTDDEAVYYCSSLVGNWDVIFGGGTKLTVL

>  <IC50 (µg/mL), pseudovirus neutralization>
> 50 µg/mL

$$$$
>  <binder>
PGT-123 (4858_P08) (antibody, V domains shown) VH: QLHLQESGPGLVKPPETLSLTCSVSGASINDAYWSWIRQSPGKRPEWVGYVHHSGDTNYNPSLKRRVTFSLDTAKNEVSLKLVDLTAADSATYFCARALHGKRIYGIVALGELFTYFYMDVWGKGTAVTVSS VL: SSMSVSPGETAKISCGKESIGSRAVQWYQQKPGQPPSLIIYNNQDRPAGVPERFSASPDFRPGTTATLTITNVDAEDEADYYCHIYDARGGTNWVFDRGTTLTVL

>  <IC50 (µg/mL), pseudovirus neutralization>
> 50 µg/mL

$$$$

Moving on to the next binder.
Q. Give a short answer stating reported IC50 (µg/mL), pseudovirus neutralization for PGT-125 (5123_A06) (antibody, V domains shown) VH: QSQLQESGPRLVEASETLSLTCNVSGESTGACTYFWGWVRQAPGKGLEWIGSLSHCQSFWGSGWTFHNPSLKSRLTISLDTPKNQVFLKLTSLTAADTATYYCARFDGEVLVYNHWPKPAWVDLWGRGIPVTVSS VL: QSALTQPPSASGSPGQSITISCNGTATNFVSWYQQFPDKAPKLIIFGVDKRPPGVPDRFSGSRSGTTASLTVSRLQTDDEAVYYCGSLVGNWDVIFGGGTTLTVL .
A. > 50 µg/mL
